Assignment: determine reported growth for the given molecules.
Test system: HCC-2998 colon
Experiment notes: NCI-60 one-dose screen, 48 h (100 = growth as untreated, 0 = no growth, -100 = all killed)
Setup conditions: 10 µM unless noted
The panel holds about 83,000 compounds, 20% with a hit somewhere; the sample as a whole holds those more often.
Write down the numeric answer in % and omit the unit.

Exercise: # query: growth of entry O=C(Nc1nonc1-c1ccccc1)c1ccc(C(F)(F)F)cc1
Key: 101

Exercise: Moving on to the next molecule: CCNC(=O)N1CCc2cc(OC)c(OCCc3ccc(OC)nc3)cc2C1c1ccc(C)cc1C (stereo not given)
Key: 13

Exercise: Moving on to the next molecule: COc1cc(OC)cc(C(=O)Nc2sc3c(c2C(N)=O)CCC(=O)C3)c1
Key: 88.3

Exercise: Moving on to the next molecule: C#Cc1nc(/C=C/C(=O)c2nccn2C)cs1
Key: -83.1

Exercise: Moving on to the next molecule: COc1cc(/C=C/C(=O)c2ccc(NC(=O)CSc3nnc(-c4ccc(-c5nc6ccc(Cl)cc6[nH]5)cc4)o3)cc2)cc(OC)c1OC
Key: 96.3

Exercise: Moving on to the next molecule: COc1cc(-c2nc3sccn3c2-c2ccnc(S(C)(=O)=O)n2)ccc1F
Key: 100

Exercise: Moving on to the next molecule: CCCCCCCn1cc2c(NCCc3ccccc3)ncnc2n1
Key: 116

Exercise: Moving on to the next molecule: NS(=O)(=O)c1ccc(Nc2nc(N/N=C/c3c[nH]c4ccccc34)nc(Nc3ccccc3)n2)cc1
Key: 52.6

Exercise: Moving on to the next molecule: CCCn1cnc2c(c1=N)C(c1ccc(OC)cc1)c1sc3c(CC)cccc3c1O2 (stereo not given)
Key: 19.2

Exercise: Moving on to the next molecule: O=C(CN1CCN(c2cc(=O)n(-c3ccccc3)c3ccccc23)CC1)Nc1ccc(F)cc1
Key: 94.4

Exercise: Moving on to the next molecule: CCCCCc1ccc(S(=O)(=O)Nc2cc(-c3csc(NC(=O)CN4CCN(C)CC4)n3)ccc2N2CCN(C)CC2)cc1
Key: -25.2

Exercise: Moving on to the next molecule: CC(=O)N1N=C(c2cccc(-n3cccc3)c2)CC1c1cccc(F)c1 (stereo not given)
Key: 106

Exercise: Moving on to the next molecule: COc1ccccc1-n1cc(C#N)c(N)c1C(=O)c1ccc(Cl)cc1
Key: 68.2

Exercise: Moving on to the next molecule: COc1ccccc1-n1cc(C#N)c(N)c1C(=O)c1ccc(Br)cc1
Key: 71

Exercise: Moving on to the next molecule: O=C(c1ccc(O)c(C(=O)N2Cc3ccc(OCCC[P+](c4ccccc4)(c4ccccc4)c4ccccc4)cc3C2)c1)N1Cc2cccc(F)c2C1
Key: 68.4

Exercise: Moving on to the next molecule: O=C(Nc1nc2ccc([N+](=O)[O-])cc2s1)Nc1ccccc1Cl
Key: 47.6

Exercise: Moving on to the next molecule: NC(=O)c1c(NC(=O)c2ccc(F)cc2F)sc2c1CCC(=O)C2
Key: 89.5

Exercise: Moving on to the next molecule: C=C1CC[C@@H]2[C@](C)(CO)[C@H](O)CC[C@@]2(C)[C@@H]1C/C(O)=C1\CCOC1=O
Key: 104

Exercise: Moving on to the next molecule: NC(N)=Nc1ccc(Oc2cccc(Oc3ccc(Cl)c(C(F)(F)F)c3)c2)cn1
Key: -80.6

Exercise: Moving on to the next molecule: Cc1ccc(-c2cc3nc(C(Cl)Cl)nc(-c4cccs4)n3n2)cc1
Key: 54.1
